Biological target: mTOR (Homo sapiens)
Construct: FLAG; made in house
Assay: In Vitro mTOR Kinase Assay (Echo), Test (a)(ii)
Type: biochemical
Settings: table of enzyme assay Test (a)(ii); read-out: Test (a)(ii) IC50
PARAMETER: log10 of IC50 (log10 of the value in nM)
All values: log10 IC50 [nM].

MOLECULE: CCS(=O)(=O)C1(c2cc(N3CCOC[C@@H]3C)nc(-c3ccc(NC(=O)NCCO)cc3)n2)CC1 [Example 11e]
log10 of IC50: 0.29

MOLECULE: C[C@H]1COCCN1c1cc(C2(S(=O)(=O)c3ccccn3)CC2)nc(-c2ccc(NC(=O)Nc3ncns3)cc2)n1 [Example 36ct]
log10 of IC50: 0.20

MOLECULE: C[C@H]1COCCN1c1cc(C2(S(=O)(=O)c3ccccc3)CC2)nc(-c2ccc(NC(=S)NCCCO)cc2)n1 [Example 37x]
log10 of IC50: 0.97

MOLECULE: C[C@H]1COCCN1c1cc(C2(S(=O)(=O)CCCO)CCC2)nc(-c2ccc(NC(=O)NCc3ncc[nH]3)cc2)n1 [Example 43e]
log10 of IC50: 2.27

MOLECULE: C[C@H]1COCCN1c1cc(C2(S(C)(=O)=O)CCC2)nc(-c2ccc(NC(=O)NC3CCC3)cc2)n1
log10 of IC50: 0.44

MOLECULE: Cn1cc(NC(=O)Nc2ccc(-c3nc(N4CCOCC4)cc(C4(S(=O)(=O)c5ccccn5)CC4)n3)cc2)cn1 [Example 56d]
log10 of IC50: 0.63

Moving on to another molecule below.
For reference, reported log10 of IC50 for C[C@H]1COCCN1c1cc(C2(S(=O)(=O)CCCO)CCC2)nc(-c2ccc(NC(=O)Nc3nccs3)cc2)n1 [Example 43t] stands at 0.74

----------
Listed here are compounds together with their documented IC50.
Biological target: mTOR (Homo sapiens, UniProt P42345)
Construct: FLAG; made in house
Sequence (P42345 1362-2549): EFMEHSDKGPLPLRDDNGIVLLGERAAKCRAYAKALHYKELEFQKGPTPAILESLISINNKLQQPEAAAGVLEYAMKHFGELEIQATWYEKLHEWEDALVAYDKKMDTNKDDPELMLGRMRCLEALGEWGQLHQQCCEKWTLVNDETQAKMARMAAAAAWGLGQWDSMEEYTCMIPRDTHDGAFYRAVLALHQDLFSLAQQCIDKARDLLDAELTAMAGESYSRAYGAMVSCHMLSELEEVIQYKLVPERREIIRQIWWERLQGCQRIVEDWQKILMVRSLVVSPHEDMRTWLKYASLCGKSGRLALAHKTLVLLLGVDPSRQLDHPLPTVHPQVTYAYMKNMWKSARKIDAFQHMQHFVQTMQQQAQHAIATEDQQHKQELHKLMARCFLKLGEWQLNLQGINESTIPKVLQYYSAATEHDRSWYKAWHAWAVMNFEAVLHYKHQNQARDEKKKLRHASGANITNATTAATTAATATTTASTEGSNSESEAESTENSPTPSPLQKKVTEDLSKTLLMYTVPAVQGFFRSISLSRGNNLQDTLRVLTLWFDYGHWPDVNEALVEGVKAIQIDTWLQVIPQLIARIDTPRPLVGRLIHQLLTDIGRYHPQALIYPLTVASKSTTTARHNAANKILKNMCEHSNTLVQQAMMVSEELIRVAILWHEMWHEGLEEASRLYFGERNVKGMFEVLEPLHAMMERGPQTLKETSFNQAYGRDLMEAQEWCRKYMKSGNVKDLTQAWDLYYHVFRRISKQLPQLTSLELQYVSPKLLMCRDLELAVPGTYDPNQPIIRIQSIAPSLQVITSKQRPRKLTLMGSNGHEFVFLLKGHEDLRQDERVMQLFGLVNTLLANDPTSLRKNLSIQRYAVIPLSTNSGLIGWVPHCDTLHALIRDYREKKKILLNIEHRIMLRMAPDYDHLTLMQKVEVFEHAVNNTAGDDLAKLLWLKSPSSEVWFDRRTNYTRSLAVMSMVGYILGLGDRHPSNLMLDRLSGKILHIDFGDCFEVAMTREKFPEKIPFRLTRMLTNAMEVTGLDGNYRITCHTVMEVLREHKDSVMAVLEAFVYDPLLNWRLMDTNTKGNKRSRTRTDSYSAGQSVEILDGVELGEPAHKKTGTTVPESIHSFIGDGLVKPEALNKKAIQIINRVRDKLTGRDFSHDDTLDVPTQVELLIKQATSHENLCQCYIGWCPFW
Experiment: In Vitro mTOR Kinase Assay (Echo), Test (a)(ii)
Type: biochemical
Conditions: table of enzyme assay Test (a)(ii); read-out: Test (a)(ii) IC50
Description: (a)(ii) In Vitro mTOR Kinase Assay (Echo) The assay used AlphaScreen technology (Gray et al., Analytical Biochemistry, 2003, 313: 234-245) to determine the ability of test compounds to inhibit phosphorylation by recombinant mTOR. A C-terminal truncation of mTOR encompassing amino acid residues 1362 to 2549 of mTOR (EMBL Accession No. L34075) was stably expressed as a FLAG-tagged fusion in HEK293 cells as described by Vilella-Bach et al., Journal of Biochemistry, 1999, 274, 4266-4272. […]
Response body: numeric value in nM, unit text excluded.

COMPOUND: CNC(=O)Nc1ccc(-c2nc(N3CCOCC3)cc(C3(S(=O)(=O)c4ccccc4)CC3)n2)cc1 [Example 36df]
ENDPOINT_UNIT: nM
IC50: 7.12
--
COMPOUND: O=C(Nc1ccc(-c2nc(N3CCOCC3)cc(C3(S(=O)(=O)C4CC4)CC3)n2)cc1)NC1CCC1 [Example 13c]
ENDPOINT_UNIT: nM
IC50: 1.73
--
COMPOUND: C[C@H]1COCCN1c1cc(C2(S(=O)(=O)CCCO)CC2)nc(-c2ccc(NC(=S)NC3CCC3)cc2)n1 [Example 37d]
ENDPOINT_UNIT: nM
IC50: 4.39
--
COMPOUND: C[C@H]1COCCN1c1cc(C2(S(=O)(=O)C3CC3)CCOCC2)nc(-c2ccc(NC(=O)NCCO)cc2)n1 [Example 23h]
ENDPOINT_UNIT: nM
IC50: 8.08
--
COMPOUND: CNC(=O)Nc1ccc(-c2nc(N3CCOC[C@@H]3C)cc(C3(S(=O)(=O)c4ccc(NC)cc4F)CC3)n2)cc1 [Example 57]
ENDPOINT_UNIT: nM
IC50: 11.9

IC50 for Cc1cc(F)ccc1S(=O)(=O)C1(c2cc(N3CCOC[C@@H]3C)nc(-c3ccc(NC(=O)NC4CC4)cc3)n2)CC1 [Example 82a] is 26.5

CNC(=O)Nc1ccc(-c2nc(N3CCOCC3)cc(C3(S(=O)(=O)CCO)CC3)n2)cc1 [Example 47a] has a reported IC50 of 5.4

Reference for the values: patent US20090018134A1
